measurement notes: In vitro peptide solubility assay (qualitative, pellet after centrifugation)
Type: physicochemical
condition info: Tris buffer, pH 7.4; read-out: Solubilty
No end group written: not given here.
measured parameter: solubility

Which solubility value belongs to NFGAPLS [SEQ ID NO. 11] ? < 1000 µg/mL

Quick one: Ac-DFGAPL-NH2 (N-terminus and C-terminus assumed) [SEQ ID NO. 3] > 10000 µg/mL

Quick one: DFGAILD [SEQ ID NO. 12] ≥ 2000 µg/mL

Quick one: DFGAPLD [SEQ ID NO. 4] > 10000 µg/mL

Quick one: NFGAILS [SEQ ID NO. 10] < 200 µg/mL

Quick one: DFGAPL [SEQ ID NO. 2] > 10000 µg/mL
